molecular target: UniProtKB P32238; assay: Agonist activity against human CCK1 receptor
pEC50: −log10 of the molar value.
Quantity name: pEC50

The cases that follow already have their pEC50 on record.
{"Item smiles": "CCOc1cccc(-n2cc(C(=O)N3CCN(c4ccc5ccccc5c4)CC3)nc2-c2c(F)cccc2F)c1", "pEC50": 8.36}
{"Item smiles": "Cc1ccc(-c2nc(C(=O)N3CCN(c4ccc5ccccc5c4)CC3)cn2-c2cccc3c2OCCO3)cc1", "pEC50": 6.33}
{"Item smiles": "COc1cccc(-c2cc(C(=O)N3CCN(c4cccc(Cl)c4)CC3)nn2-c2ccc(C)cc2)c1", "pEC50": 6.51}

1: COc1cccc(-n2cc(C(=O)N3CCN(c4cnc5ccccc5c4)CC3)nc2-c2ccc(C)cc2)c1
2: CCOc1cccc(-n2cc(C(=O)N3CCN(c4cnc5ccccc5c4)CC3)nc2-c2ccc(F)cc2)c1
In terms of reported pEC50, does 1 or 2 have the smaller number? The response must carry the label of the picked entry.
1

P: CCc1cccc(-n2cc(C(=O)N3CCN(c4ccc5ccccc5c4)CC3)nc2-c2ccc(C)cc2)c1
Q: CCOc1cccc(-n2cc(C(=O)N3CCN(c4ccc5ccccc5c4)CC3)nc2-c2ccc(F)cc2F)c1
Please let me know which one, P or Q , has a lower measured pEC50 value. Write the label of whichever entry you select.
P

a: Cc1ccc(-c2nc(C(=O)N3CCN(c4cnc5ccccc5c4)CC3)cn2-c2ccc3c(c2)OCCO3)cc1
b: COc1cccc(-n2cc(C(=O)N3CCN(c4ccc(Cl)c(Cl)c4)CC3)nc2-c2ccc(C)cc2)c1
For the pair a and b , which entry has the numerically smaller recorded pEC50? # reply format: chosen label
b

* * *

assay: Volume of distribution in mouse at 1.0 mg/kg, iv and 10 mg/kg, po; assay type: ADME, organism-based; conditions: in vivo
Quantity name: Vd (L/kg)

{"Item smiles": "CCOc1cccc(-n2cc(C(=O)N3CCN(c4cc(C(=O)O)c5ccccc5c4)CC3)nc2-c2ccc(C)cc2)c1", "Unit text": "L/kg", "Vd": 0.47}
{"Item smiles": "CCOc1cccc(-n2cc(C(=O)N3CCN(c4cc(C(=O)O)c5ccccc5c4)CC3)nc2-c2ccc(C)cc2F)c1", "Unit text": "L/kg", "Vd": 0.59}
{"Item smiles": "CCOc1cccc(-n2cc(C(=O)N3CCN(c4cc(C(=O)O)c5ccccc5c4)CC3)nc2-c2ccc(F)cc2)c1", "Unit text": "L/kg", "Vd": 0.73}
{"Item smiles": "CCOc1cccc(-n2cc(C(=O)N3CCN(c4cc(C(=O)[O-])c5ccccc5c4)CC3)nc2-c2ccc(C)cc2)c1.[Na+]", "Unit text": "L/kg", "Vd": 0.56}

* * *

target: Cholecystokinin receptor type A (Homo sapiens); assay: Agonist activity against human CCK1 receptor assessed as receptor activation at 10000 nM; type: functional
Quantity name: Activity (%)

Past entries and their recorded results:
{"Item smiles": "CCOc1cccc(-n2cc(C(=O)N3CCN(c4cc(C(=O)O)c5ccccc5c4)CC3)nc2-c2ccc(C)cc2F)c1", "Quantity name": "Activity", "Unit text": "%", "Observed measurement": 73}
{"Item smiles": "Cc1ccc(-c2nc(C(=O)N3CCN(c4ccc5ccccc5c4)CC3)cn2-c2cccc(O)c2)cc1", "Quantity name": "Activity", "Unit text": "%", "Observed measurement": 102}
{"Item smiles": "Cc1ccc(-c2nc(C(=O)N3CCN(c4ccc5ccccc5c4)CC3)cn2-c2cccc(OC(F)(F)F)c2)cc1", "Quantity name": "Activity", "Unit text": "%", "Observed measurement": 66}
{"Item smiles": "COc1cccc(-n2cc(C(=O)N3CCN(c4cc5ccccc5cn4)CC3)nc2-c2ccc(C)cc2)c1", "Quantity name": "Activity", "Unit text": "%", "Observed measurement": 89}
{"Item smiles": "COc1cccc(-n2cc(C(=O)N3CCN(c4cnc5ccccc5c4)CC3)nc2-c2ccc(C)cc2)c1", "Quantity name": "Activity", "Unit text": "%", "Observed measurement": 92}

A: Cc1ccc(-c2nc(C(=O)N3CCN(c4cc(C(=O)O)c5ccccc5c4)CC3)cn2-c2ccc3c(c2)OCCO3)c(F)c1
B: COc1cccc(-n2cc(C(=O)N3CCN(c4cccc5ccccc45)CC3)nc2-c2ccc(C)cc2)c1
Please tell me which of the two, A or B , has the higher reported Activity value. Lab log: write the label of the selected item as the result.
A

* * *

assay: Half life in mouse at 1.0 mg/kg, iv and 10 mg/kg, po; assay type: ADME, organism-based; settings: in vivo
Quantity name: half-life (h)

Below, 2 molecules whose answers are already recorded.
{"Item smiles": "CCOc1cccc(-n2cc(C(=O)N3CCN(c4cc(C(=O)O)c5ccccc5c4)CC3)nc2-c2ccc(F)cc2)c1", "Unit text": "h", "half-life": 2.7}
{"Item smiles": "CCOc1cccc(-n2cc(C(=O)N3CCN(c4cc(C(=O)[O-])c5ccccc5c4)CC3)nc2-c2ccc(C)cc2)c1.[Na+]", "Unit text": "h", "half-life": 3.4}

a: CCOc1cccc(-n2cc(C(=O)N3CCN(c4cc(C(=O)O)c5ccccc5c4)CC3)nc2-c2ccc(C)cc2)c1
b: CCOc1cccc(-n2cc(C(=O)N3CCN(c4cc(C(=O)O)c5ccccc5c4)CC3)nc2-c2ccc(C)cc2F)c1
Lower value of half-life belongs to which: a or b ? Use the label to indicate which entry you chose.
b
(b: 1.7 h, a: 3.5 h)

* * *

Target: Cholecystokinin receptor type A (Homo sapiens) (UniProt P32238)
Sequence (whole entry): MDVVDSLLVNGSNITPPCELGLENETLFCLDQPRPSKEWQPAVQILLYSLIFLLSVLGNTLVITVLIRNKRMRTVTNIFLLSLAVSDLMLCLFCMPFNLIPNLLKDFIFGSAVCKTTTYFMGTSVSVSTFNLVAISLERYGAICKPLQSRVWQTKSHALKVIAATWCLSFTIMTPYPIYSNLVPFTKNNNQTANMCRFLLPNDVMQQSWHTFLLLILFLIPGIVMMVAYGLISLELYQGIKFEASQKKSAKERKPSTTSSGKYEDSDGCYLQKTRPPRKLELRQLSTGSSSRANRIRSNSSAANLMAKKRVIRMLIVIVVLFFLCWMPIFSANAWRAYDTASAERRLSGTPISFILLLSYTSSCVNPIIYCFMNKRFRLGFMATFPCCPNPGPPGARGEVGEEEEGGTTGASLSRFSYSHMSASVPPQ
Assay: Agonist activity against human CCK1 receptor assessed as receptor activation at 10000 nM
Type: functional
Quantity name: Activity (%)

{"Item smiles": "Cc1ccc(-c2nc(C(=O)N3CCN(c4cnc5ccccc5c4)CC3)cn2-c2ccc3c(c2)OCCO3)cc1", "Measured target": "Cholecystokinin receptor type A (Homo sapiens) (UniProt P32238)", "Observed measurement": 94}
{"Item smiles": "CCOc1cccc(-n2cc(C(=O)N3CCN(c4ccc5ccccc5c4)CC3)nc2-c2ccc(Cl)cc2)c1", "Measured target": "Cholecystokinin receptor type A (Homo sapiens) (UniProt P32238)", "Observed measurement": 119}
{"Item smiles": "COc1cccc(-n2cc(C(=O)N3CCN(c4cccc(Cl)c4)CC3)nc2-c2ccc(C)cc2)c1", "Measured target": "Cholecystokinin receptor type A (Homo sapiens) (UniProt P32238)", "Observed measurement": 89}
{"Item smiles": "CCOc1cccc(-n2cc(C(=O)N3CCN(c4cc(C(=O)O)c5ccccc5c4)CC3)nc2-c2ccc(F)cc2)c1", "Measured target": "Cholecystokinin receptor type A (Homo sapiens) (UniProt P32238)", "Observed measurement": 95}

* * *

target: Cholecystokinin receptor type A (Homo sapiens); assay: Agonist activity against human CCK1 receptor
pEC50: −log10 of the molar value.
Quantity name: pEC50

Example entries and their recorded answers appear below.
{"Item smiles": "CCOc1cccc(-n2cc(C(=O)N3CCN(c4ccc5ccccc5c4)CC3)nc2-c2ccc(F)cc2)c1", "pEC50": 8.54}
{"Item smiles": "CCOc1cccc(-n2cc(C(=O)N3CCN(c4ccc5ccccc5c4)CC3)nc2-c2ccc(CC)cc2)c1", "pEC50": 6.76}
{"Item smiles": "CCOc1cccc(-n2cc(C(=O)N3CCN(c4cc(C(=O)O)c5ccccc5c4)CC3)nc2-c2ccc(F)cc2)c1", "pEC50": 10.32}

P: COc1cccc(-n2cc(C(=O)N3CCN(c4cc(C(=O)O)c5ccccc5c4)CC3)nc2-c2ccc(C)cc2)c1
Q: Cc1ccc(-c2nc(C(=O)N3CCN(c4ccc5ccccc5c4)CC3)cn2-c2ccc3c(c2)OCCO3)cc1
For P and Q , which recorded pEC50 is lower? Kindly give the label for the entry you pick.
Q

* * *

molecular target: Gastrin/cholecystokinin type B receptor (Homo sapiens) (UniProt P32239); assay: Agonist activity against human CCK2 receptor assessed as receptor activation at 10000 nM; type: functional
Sequence (P32239 whole entry): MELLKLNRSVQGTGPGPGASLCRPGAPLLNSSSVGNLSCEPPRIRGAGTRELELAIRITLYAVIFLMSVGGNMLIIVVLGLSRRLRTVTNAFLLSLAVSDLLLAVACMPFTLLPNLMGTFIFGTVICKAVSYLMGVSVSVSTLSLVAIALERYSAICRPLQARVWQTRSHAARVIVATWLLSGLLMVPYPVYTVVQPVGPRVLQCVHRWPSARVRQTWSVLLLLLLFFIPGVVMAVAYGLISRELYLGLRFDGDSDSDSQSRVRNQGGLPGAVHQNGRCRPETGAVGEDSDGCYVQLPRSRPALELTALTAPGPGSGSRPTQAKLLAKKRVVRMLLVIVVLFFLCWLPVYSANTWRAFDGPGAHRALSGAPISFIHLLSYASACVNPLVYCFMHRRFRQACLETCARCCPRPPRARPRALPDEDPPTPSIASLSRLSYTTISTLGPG
Quantity name: Activity

See these solved cases before continuing.
{"Item smiles": "COc1cccc(-n2cc(C(=O)N3CCN(c4nc5ccccc5[nH]4)CC3)nc2-c2ccc(C)cc2)c1", "Activity": "< 20%"}
{"Item smiles": "Cc1ccc(-c2nc(C(=O)N3CCN(c4cc(C(=O)O)c5ccccc5c4)CC3)cn2-c2ccc3c(c2)OCCO3)c(F)c1", "Activity": "< 36%"}
{"Item smiles": "Cc1ccc(-c2nc(C(=O)N3CCN(c4ccc5ccccc5c4)CC3)cn2-c2cccc(OCC(F)(F)F)c2)cc1", "Activity": "< 21%"}

Now turn to the next compound.
Recorded Activity for COc1cccc(-n2cc(C(=O)N3CCN(c4cnc5ccccc5c4)CC3)nc2-c2ccc(C)cc2)c1 , please?
< 20%
